Values were extracted from PubChem BioAssay (NCI).

System: HL-60(TB) leukemia
assay-comment: NCI tumour cell line growth inhibition, 48 h
Use 10 µM as the dividing line for TGI, with the line itself on the Met side and lower values as Not met.

>  <compound>
COc1ccc2c(c1)C(=O)c1c-2c(OCCN(C)C)nc2ccccc12

>  <discrete-label>
Met

$$$$
>  <compound>
C=C1CC[C@@H](C)[C@](C)(CCc2ccoc2)C/C=C\C=C/1C(=O)O

>  <discrete-label>
Met

$$$$
>  <compound>
CN1CCN(c2ccc3c(c2)NCC(=O)N3)CC1

>  <discrete-label>
Met

$$$$
>  <compound>
COc1cc(/C=C/c2ccc3c(Br)cc(Br)c(O)c3n2)ccc1O

>  <discrete-label>
Not met

$$$$
>  <compound>
O=c1c2cc(F)ccc2sc2c(NCCCNCCO)nc3ccccc3c12

>  <discrete-label>
Not met

$$$$

Request: Tell me whether TGI is at least 10 µM here: CNNC(=NS(=O)(=O)c1cc(C#N)c(NNC)cc1S)NNC
Response: Met

Request: Tell me whether TGI is at least 10 µM here: Cc1ccc(C2C3Cc4ccccc4C3=NN2c2ccc(S(=O)(=O)/N=c3\scc(-c4ccccc4)n3-c3ccccc3)cc2)cc1 (stereo not given)
Response: Met

Request: Tell me whether TGI is at least 10 µM here: O=c1[nH]c2nc3ccccc3c(=O)n2/c1=C/c1ccco1
Response: Met

Request: Tell me whether TGI is at least 10 µM here: CC(=O)O[C@@H]1C[C@@]2(C)[C@@H]3CC=C4[C@@H](C[C@H](O)C(=O)C4(C)C)[C@]3(C)C(=O)C[C@]2(C)[C@H]1[C@@](C)(O)C(=O)/C=C/C(C)(C)OC(C)=O
Response: Met

Request: Tell me whether TGI is at least 10 µM here: O=C1NC2CCCCCC2C12CCCCC2 (stereo not given)
Response: Met

* * *

Test system: SN12C renal
assay-comment: NCI tumour cell line growth inhibition, 48 h
experimental-endpoint: log10 of TGI (log10 of the value in µM)
# log10 transformed; quantity=TGI; unit=µM

For each of the compounds below, note its log10 of TGI.
1. O=C1N[C@@H]2C(=C[C@H](O)[C@@H](O)[C@H]2O)c2cc3c(c(O)c21)OCO3
2. OC(c1cccnc1Cl)c1nc2ccccc2c2ccnc(Cl)c12 (centres undefined)
3. COc1cc2ncc3c(nc4sccn43)c2cc1OC

Response:
1. -0.91
2. 1.66
3. 1.95

For each of the compounds below, note its log10 of TGI.
1. COc1cc(-c2nn(-c3cccc(NC(=O)CCN4CCN(Cc5ccccc5)CC4)c3)cc2-c2ccncc2)ccc1Cl
2. COc1cccc(C(=O)C#Cc2cnc(OC)nc2OC)c1
3. COc1ccc(/C=C(\C)[N+](=O)[O-])cc1OC
4. C=CCc1cc(Nc2c3ccc(Cl)cc3nc3ccc(OC)cc23)cc(CN(CC)CC)c1O
5. COc1cc2c(cc1F)C(c1ccccc1Cl)=Nc1c(n[nH]c1C)N2
6. CCc1ccc2c(c1)N(CC(C)CN(C)C)c1ccccc1S2 (centres undefined)
7. O=C1CCCC/C1=C\c1ccc(Cl)c(Cl)c1
8. N#CCN1C(=O)c2cc([N+](=O)[O-])cc3cc([N+](=O)[O-])cc(c23)C1=O

Response:
1.31
0.30
0.92
1.08
1.26
1.29
1.49
1.45

For each of the compounds below, note its log10 of TGI.
1. CC(C)/C(Cl)=N/OC(=O)Nc1ccc(Cl)c(Cl)c1
2. Cc1[nH]nc(-c2ccon2)c1N=O
3. CCOC(=O)c1cc2c(cc1Cl)SC(=Nc1ccccc1)N(S(=O)(=O)c1ccc(Br)s1)S2(=O)=O

Response:
[0.53, 1.62, 1.53]

* * *

Test system: A549 NSCLC
assay-comment: NCI tumour cell line growth inhibition, 48 h
experimental-endpoint: TGI (µM)
Give bare numbers, in µM.

Consider the reported TGI for these molecules:
>  <molecule>
CCC1C(c2ccccc2O)c2cc3c(cc2OC1N1CCOCC1)OCO3 (configuration not stated)

>  <TGI [µM]>
29.9

$$$$
>  <molecule>
O=C(c1ccccc1)c1c(CC(O)c2ccncc2)n(C(=O)c2ccccc2)c2ccccc12 (configuration not stated)

>  <TGI [µM]>
52.8

$$$$
>  <molecule>
C[C@@H]1Cc2cc(O)ccc2[C@H]2CC[C@]3(C)/C(=C/COCCN(C)C)CC[C@H]3[C@H]12 (tested in a mixture with another compound)

>  <TGI [µM]>
0.193

$$$$
>  <molecule>
CCOC(=O)/C(I)=C/c1cc(OC)c(OC)c(OC)c1

>  <TGI [µM]>
22.5

$$$$
>  <molecule>
N#CCN1C(=O)c2cc([N+](=O)[O-])cc3cc([N+](=O)[O-])cc(c23)C1=O

>  <TGI [µM]>
43.8

$$$$

For each of the molecules below, note its TGI.
1. COc1cc2c(cc1F)C(c1ccccc1Cl)=Nc1c(n[nH]c1C)N2
2. CC1=C(C(=O)Nc2ccc(Cl)c(Cl)c2)C(c2ccc([N+](=O)[O-])cc2)C(C(=O)Nc2ccc(Cl)c(Cl)c2)=C(C)N1
3. COc1cc(-c2nn(-c3cccc(NC(=O)CCN4CCN(Cc5ccccc5)CC4)c3)cc2-c2ccncc2)ccc1Cl
4. CN1CCN(CCCCCN=c2cc3c(=O)n(CCCCCN4CCN(C)CC4)c(=O)c4c(NCCCCCN5CCN(C)CC5)cc5c(O)n(CCCCCN6CCN(C)CC6)c(=O)c2c5c4-3)CC1

Response:
1. 23.9
2. 15.1
3. 11.6
4. 8.64

* * *

Test system: HT29 colon
assay-comment: NCI tumour cell line growth inhibition, 48 h
experimental-endpoint: TGI

Consider the reported TGI for these compounds:
>  <compound>
C1CSCCSCCCSCCSCCCSCCSCCCSCCSC1

>  <target>
HT29 colon

>  <TGI>
> 100 µM

$$$$
>  <compound>
CC1(C)CC(=O)c2c(nc3c4c([nH]c(-c5ccc(Br)cc5)c24)CC(C)(C)C3)C1

>  <target>
HT29 colon

>  <TGI>
> 100 µM

$$$$
>  <compound>
CCOC(=O)C1CCCCN1C(=O)Cc1c[nH]c2ccccc12 (stereo unspecified)

>  <target>
HT29 colon

>  <TGI>
> 100 µM

$$$$
>  <compound>
O=Cc1ccc2c(c1I)OCO2

>  <target>
HT29 colon

>  <TGI>
> 100 µM

$$$$
>  <compound>
O=C1c2c(Br)sc(Br)c2[C@@H](NC(=O)C(F)(F)F)C1Br (stereo partly specified)

>  <target>
HT29 colon

>  <TGI>
5.77 µM

$$$$
>  <compound>
Cc1cc2c(c(C(N)=O)c1C)-c1cc(Cl)cc(Cl)c1C2=O

>  <target>
HT29 colon

>  <TGI>
> 100 µM

$$$$
>  <compound>
CC(C)(C)c1cc2nc(c1)C(C(F)(F)F)(C(F)(F)F)OB(Br)OC2(C(F)(F)F)C(F)(F)F

>  <target>
HT29 colon

>  <TGI>
12.1 µM

$$$$
>  <compound>
CCc1c(C)nc2sc3c(N)ncnc3c2c1C

>  <target>
HT29 colon

>  <TGI>
> 25 µM

$$$$

For each of the compounds below, note its TGI.
1. Cc1ccc(NC(=O)C(=O)C(C(=O)/C=C/c2ccccc2)C2OC(=O)c3ccccc32)c(C)c1 (stereo unspecified)
2. Oc1cc(-n2cccn2)c(O)cc1-n1cccn1
3. OC(c1cccnc1Cl)c1nc2ccccc2c2ccnc(Cl)c12 (stereo unspecified)

Response:
> 100 µM
56.2 µM
> 100 µM

* * *

System: SF-295 CNS
assay-comment: NCI tumour cell line growth inhibition, 48 h
For each record, write down the corresponding TGI.

For each of the molecules below, note its TGI.
1. N#Cc1nc(C#N)n(S(=O)(=O)c2ccccc2)c1NS(=O)(=O)c1ccccc1
2. Cc1ccc(NC(=O)C(=O)C(C(=O)/C=C/c2ccccc2)C2OC(=O)c3ccccc32)c(C)c1 (centres undefined)
3. C[N+](C)(C)c1ncnc2c1ncn2C1CCCO1 (centres undefined)
4. Clc1ccc(C2ON=C(c3ccccc3)N2C23CC4CC(CC(C4)C2)C3)cc1 (centres undefined)

Response:
1. > 100 µM
2. > 100 µM
3. > 100 µM
4. > 10 µM

For each of the molecules below, note its TGI.
1. COc1cc(C(=O)Nc2cc(O)c(CC=C(C)C)c(O)c2)cc2c1O[C@]1(C)CC[C@@H](O)C(C)(C)[C@H]1C2
2. COc1ccc(C(=O)/C=C/c2ccc(OCC#N)cc2)cc1
3. ClC1=C(Cl)C(Cl)(Cl)c2c3c(c4c(c21)C(Cl)(Cl)C(Cl)=C4Cl)C(Cl)(Cl)C(Cl)=C3Cl
4. FC(F)(F)c1cccc(-c2nn3ncccc3c2-c2ccnc(Nc3ccc4c(c3)OCCO4)n2)c1
5. O=C(O)c1ccccc1N=Nc1c(O)c(S(=O)(=O)O)cc2cc(S(=O)(=O)O)ccc12

Response:
1: 0.325 µM; 2: > 100 µM; 3: > 100 µM; 4: > 25 µM; 5: > 100 µM
